Biological target: T1, 磷脂酰肌醇蛋白聚糖3(GPC3) (UniProt P51654 25-554)
T1 construct: whole, on cells; also called MXR7; OCI-5
T1 sequence (P51654 25-554 limits assumed, form in doubt): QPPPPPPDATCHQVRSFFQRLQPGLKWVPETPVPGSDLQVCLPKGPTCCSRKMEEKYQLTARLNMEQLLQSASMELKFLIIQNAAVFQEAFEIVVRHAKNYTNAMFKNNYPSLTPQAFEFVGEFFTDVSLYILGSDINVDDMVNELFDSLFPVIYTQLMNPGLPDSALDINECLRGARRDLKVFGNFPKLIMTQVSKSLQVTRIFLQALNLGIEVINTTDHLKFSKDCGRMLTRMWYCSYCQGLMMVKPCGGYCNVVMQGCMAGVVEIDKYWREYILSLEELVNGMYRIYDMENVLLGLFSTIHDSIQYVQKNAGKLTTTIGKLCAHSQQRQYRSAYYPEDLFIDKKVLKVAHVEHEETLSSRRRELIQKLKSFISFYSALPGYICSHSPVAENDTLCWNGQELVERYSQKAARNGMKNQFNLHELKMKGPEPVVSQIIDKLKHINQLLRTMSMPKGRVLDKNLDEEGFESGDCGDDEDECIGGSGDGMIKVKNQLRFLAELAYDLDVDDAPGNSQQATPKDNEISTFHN
Assay: flow cytometry on GPC3-CHO-S cells, full-length IgG1
Reported metric: EC50 (µg/mL)
Numeric only. Scale: µg/mL

Solved entries:
Binder	Measured number
D48 (antibody, V domains shown, also called 克隆D48) VH: EVQLLESGGGLVQPGESLRLSCEASGLTFSSYPMAWVRQAPGKGLEWVSVIYSDGSKKFYADSVKGRFTISRHNSKNTLYLQMNSLRAEDTAVYYCARGISSSGFDYWGQGTLVTVSS VL: DIQLTQSPSSLSASVGDRVTITCRASQGISSWLAWYQQKPGKAPKLLIYAASSLQSGVPSRFSGSGSGTDFTLTISSLQPEDFATYYCQQGNSFPLTFGGGTKVEIK	0.0968
D36 (antibody, V domains shown, also called 克隆D36) VH: EVQLLESGGGLVKPGGSLRLSCAASGFTFSSYSMNWVRQAPGKGLEWVSSISSSSSYIYYADSVKGRFTISRDNAKNSLYLQMNSLRAEDTAVYYCARETTDGGMDVWGQGTLVTVSS VL: DIQMTQSPSSVSASVGDRVTITCRASQDIGKYLNWYQQKAGKAPNLLIYDASNLKTGVSSRFSGSGSGTEFTFTISSLQPEDIATYFCQQFDDFPYTFGPGTKVGIR	0.0394
D5 (antibody, V domains shown, also called 克隆D5) VH: EVQLLESGGGVVQPGRSLRLSCAASGFTFSSYAMHWVRQAPGKGLEWVAVISYDGSNKYYADSVKGRFTISRDNSKNTLYLQMNSLRAEDTAVYYCARQYSSSSPFDYWGQGTLVTVSS VL: NIQLTQSPSTLSASVGDRITITCRASQSISRWLAWYQQKPGKAPKVLIYKASNLENGVPSRFSGSGSGTEFTLTISSLQPDDSATYYCQQHSYSSPWRFGQGTKVEIK	0.0664

# lookup: EC50 of D35 (antibody, V domains shown, also called 克隆D35) VH: EVQLVESGGGVVKPGGSLRLSCAASGFIFSDSYMTWLRQAPGKGLEWVSYISGSASDIKYADSVKGRFTISRDNAKNSLYLQMNSLRVEDTAVYYCARDPRLAGIWGQGTTVTVSS VL: DIQLTQSPSTLSASIGDRVTITCRASQRVSSRLAWYQQKPGKAPKLLIYKTSNLEAEVPSRFSGSGSGTEFTLTISSLQPDDFATYYCQQYHSYPLTFGGGTKVEIK 0.0316
